experimentDescription: Conversion of compounds in human plasma
Type: in vitro ADME
testSettings: 1 μM test compound, 37° C., 0-6 hours; nd: not detected
Procedure: Frozen human plasma was thawed and then centrifuged at 3200×g for 5 minutes to remove debris. The pH value of the supernatant was then measured and adjusted to 7.4±0.1 by adding 1% phosphoric acid or 1 N sodium hydroxide. […] The mixture was incubated, and samples were withdrawn from the incubations at the pre-determined time points of 0, 0.5, 1, 2, 4 and 6 hours (in duplicate) at 37° C. in water bath. […]
endpointName: Observed metabolite, incubation in human plasma

CCCN1CCC[C@@H]2Cc3c(ccc(O[C@@H]4O[C@H](COC(C)=O)[C@@H](OC(C)=O)[C@H](OC(C)=O)[C@H]4OC(C)=O)c3O)C[C@H]21 | Compound (7)
CCCN1CCC[C@@H]2Cc3c(ccc(O[C@@H]4O[C@H](CO)[C@@H](O)[C@H](O)[C@H]4O)c3O[C@@H]3O[C@H](CO)[C@@H](O)[C@H](O)[C@H]3O)C[C@H]21 | Compound (7)

----------
systemUnderTest: human 5-HT2B receptor (Homo sapiens, UniProt P41595)
Construct: host or cells: CHO cells (membrane homogenates)
Sequence (P41595 whole entry): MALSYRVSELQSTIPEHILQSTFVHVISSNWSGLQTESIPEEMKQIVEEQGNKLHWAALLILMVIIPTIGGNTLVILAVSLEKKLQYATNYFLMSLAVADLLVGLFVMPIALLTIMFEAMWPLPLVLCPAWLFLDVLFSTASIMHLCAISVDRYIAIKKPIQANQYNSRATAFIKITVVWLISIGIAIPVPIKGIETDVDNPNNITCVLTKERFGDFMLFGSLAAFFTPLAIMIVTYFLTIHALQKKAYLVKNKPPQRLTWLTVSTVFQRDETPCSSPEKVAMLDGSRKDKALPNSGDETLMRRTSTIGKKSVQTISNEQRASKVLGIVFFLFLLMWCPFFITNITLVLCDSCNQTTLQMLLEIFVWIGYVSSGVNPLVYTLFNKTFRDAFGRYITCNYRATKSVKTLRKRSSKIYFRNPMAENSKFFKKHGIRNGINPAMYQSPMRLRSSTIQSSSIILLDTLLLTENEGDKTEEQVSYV
experimentDescription: 5-HT2B radioligand binding assay ([125I](±)DOI, CHO cell membranes)
testSettings: read-out: 5-HT2B % @ 10 μM (binding affinity, % inhibition of control specific binding)
Provide the reported inhibition at 10 µM of each item.
Output spec: scalar in %, unitless text.

Would you mind telling me what inhibition at 10 µM value was observed for `CCCN1CCC[C@@H]2Cc3c(ccc(O[C@@H]4O[C@H](COC(C)=O)[C@@H](OC(C)=O)[C@H](OC(C)=O)[C@H]4OC(C)=O)c3O)C[C@H]21` ?
9

Could you do the same for `CCCN1CCC[C@@H]2Cc3c(ccc(O)c3O[C@@H]3O[C@H](COC(C)=O)[C@@H](OC(C)=O)[C@H](OC(C)=O)[C@H]3OC(C)=O)C[C@H]21` , please?
-6

Query `CCCN1CCC[C@@H]2Cc3c(ccc(O[C@@H]4O[C@H](CO)[C@@H](O)[C@H](O)[C@H]4O)c3O)C[C@H]21` next
7

For `CCCN1CCC[C@@H]2Cc3c(ccc(OC)c3O)C[C@H]21` then?
24

Also check CCCN1CCC[C@@H]2Cc3c(ccc(OC(=O)C(C)(C)C)c3OC(=O)C(C)(C)C)C[C@H]21 [(Ic), reference compound]
-5

Repeat with `CCCN1CCC[C@@H]2Cc3c(ccc(O[C@@H]4O[C@H](COC(C)=O)[C@@H](OC(C)=O)[C@H](OC(C)=O)[C@H]4OC(C)=O)c3O[C@@H]3O[C@H](COC(C)=O)[C@@H](OC(C)=O)[C@H](OC(C)=O)[C@H]3OC(C)=O)C[C@H]21`
-12

Would you kindly repeat that for `CCCN1CCC[C@@H]2Cc3c(ccc(O)c3O[C@@H]3O[C@H](CO)[C@@H](O)[C@H](O)[C@H]3O)C[C@H]21` ?
0

Now the compound `CCCN1CCC[C@@H]2Cc3c(ccc(O[C@@H]4O[C@H](CO)[C@@H](O)[C@H](O)[C@H]4O)c3O[C@@H]3O[C@H](CO)[C@@H](O)[C@H](O)[C@H]3O)C[C@H]21`
-5

----------
systemUnderTest: human 5-HT2B receptor (Homo sapiens, UniProt P41595)
Construct: host or cells: CHO cells (membrane homogenates)
experimentDescription: 5-HT2B radioligand binding assay ([125I](±)DOI, CHO cell membranes)
testSettings: read-out: 5-HT2B % @ 10 μM (binding affinity, % inhibition of control specific binding)
Protocol: Evaluation of the affinity of compounds for the human 5-HT2B receptor was determined in a radioligand binding assay at Eurofins/Cerep (France). […] Nonspecific binding is determined in the presence of 1 μM (±)DOI. […] The filters were dried and counted for radioactivity in a scintillation counter (Topcount, Packard) using a scintillation cocktail (Microscint 0, Packard). The results are expressed as a percent inhibition of the control radioligand specific binding. […]
endpointName: inhibition at 10 µM (%)
Give the value, in units of %, as a plain number.

// lookup inhibition at 10 µM for `CCCN1CCC[C@@H]2Cc3c(ccc(O[C@@H]4O[C@H](COC(C)=O)[C@@H](OC(C)=O)[C@H](OC(C)=O)[C@H]4OC(C)=O)c3OC(C)=O)C[C@H]21`
-5

Subsequent entry: `CCCN1CCC[C@@H]2Cc3c(ccc(OC(C)=O)c3O[C@@H]3O[C@H](COC(C)=O)[C@@H](OC(C)=O)[C@H](OC(C)=O)[C@H]3OC(C)=O)C[C@H]21`
18

What do we get for `CCCN1CCC[C@@H]2Cc3c(ccc(OCc4ccccc4)c3O)C[C@H]21` ?
30

----------
Tested on: human hepatocytes
experimentDescription: Conversion of compounds in human hepatocytes
Format: in vitro ADME
testSettings: 1 μM compound, 37° C.; nd: not detected
endpointName: Observed metabolite, incubation in human hepatocytes

CCCN1CCC[C@@H]2Cc3c(ccc(O)c3O[C@@H]3O[C@H](CO)[C@@H](O)[C@H](O)[C@H]3O)C[C@H]21 | Compound (I)
CCCN1CCC[C@@H]2Cc3c(ccc(OCc4ccccc4)c3O)C[C@H]21 | Compound (I)
CCCN1CCC[C@@H]2Cc3c(ccc(OC)c3O)C[C@H]21 | Compound (I)

// data source = patent US12319710B2
